assay: protein stability index of a GFP-peptide fusion (yeast GPS) (PSI 1-4); higher = more stable; sorted into four equal gates, so the index is relative within each strain; settings: pdr5∆
# protein stability index annotations
RESULT TYPE: protein stability index

INSERT INTO measurements (chain, measured_result) VALUES
  ('EDFLHFIVAEYIQQKKV [SRB4]', 2.79),
  ('PSLKAHFTEIKLNKVDK [SIR3]', 2.13),
  ('GKEFGDVSVKMGNTKVH [RRP45]', 1.53),
  ('SDVSDFEGWGHEYIRHL [RPN1]', 3.09),
  ('GIHDGHIKKLLHQYYGD [FAS1]', 1.8),
  ('LCDLFVNGSITDQLIQN [NUT1]', 2.11),
  ('DLAERASELDESKDSIQ [SMC3]', 3.1),
  ('DKDNAEKTLGKSLSKAI [RPN7]', 2.67);
